Record type: pIC50 measurement. Applies to: DNA ligase (Staphylococcus aureus, UniProt Q9AIU7)
As a rule, pIC50 stands for the negative log10 of the concentration, concentration in M.

Consider the following illustrative entries.
# smiles representation, readout number
records = [
    ("NC(=O)c1cnc(N)c2cc(Br)sc12", 4.32),
    ("NC(=O)c1cc2c(N)ncc(C(N)=O)c2s1", 4.82),
    ("CCNC(=O)c1cc2c(N)ncc(C(N)=O)c2s1", 4.12),
    ("CCCNc1ncc(C(N)=O)c2sc(Br)cc12", 3.74),
    ("NC(=O)c1cnc(N)c2c(Br)csc12", 4.41),
]

// fetch DNA ligase (Staphylococcus aureus, UniProt Q9AIU7) pIC50 for Cc1c(Br)sc2c(C(N)=O)cnc(N)c12
5.15

Given the entry Nc1nc(OC2CCCC2)nc2c1ncn2[C@@H]1O[C@H](CO)[C@@H](O)[C@H]1O , what pIC50 was observed with DNA ligase (Staphylococcus aureus, UniProt Q9AIU7)?
6.37

Please state recorded pIC50 (tested on DNA ligase (Staphylococcus aureus, UniProt Q9AIU7)) of CCOC(=O)c1cc2c(N)ncc(C(N)=O)c2s1
Sequence (Q9AIU7 whole entry): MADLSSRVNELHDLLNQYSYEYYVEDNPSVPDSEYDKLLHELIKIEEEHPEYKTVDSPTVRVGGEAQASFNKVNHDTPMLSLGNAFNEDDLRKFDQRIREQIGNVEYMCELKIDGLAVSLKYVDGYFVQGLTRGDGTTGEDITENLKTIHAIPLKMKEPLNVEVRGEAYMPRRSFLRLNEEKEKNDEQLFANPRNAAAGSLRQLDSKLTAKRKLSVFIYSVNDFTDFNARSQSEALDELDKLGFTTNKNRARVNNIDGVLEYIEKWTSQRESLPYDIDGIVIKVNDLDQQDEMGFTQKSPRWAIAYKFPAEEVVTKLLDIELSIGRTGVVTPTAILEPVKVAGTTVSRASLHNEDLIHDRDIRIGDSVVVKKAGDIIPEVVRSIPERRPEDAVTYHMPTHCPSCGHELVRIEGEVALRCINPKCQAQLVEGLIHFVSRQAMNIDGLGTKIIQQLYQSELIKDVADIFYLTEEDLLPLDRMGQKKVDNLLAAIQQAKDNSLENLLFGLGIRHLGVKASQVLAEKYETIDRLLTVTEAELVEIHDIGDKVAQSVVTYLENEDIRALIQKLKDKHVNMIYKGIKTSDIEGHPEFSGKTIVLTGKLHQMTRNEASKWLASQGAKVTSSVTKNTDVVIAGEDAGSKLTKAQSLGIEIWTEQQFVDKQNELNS
5.05

* * *

# assay method text: Inhibition of wild type Streptococcus pneumoniae LigA
Label yes when IC50 < 30 µM; otherwise no.

# smiles representation, qualitative label
data = [
    ("Cc1csc2c(C(N)=O)cnc(N)c12", "no"),
]

Hello, I'm reviewing records and need to know if IC50 of NC(=O)c1cnc(Nc2ccccc2)c2cc(Br)sc12 is below 30 µM. Could you check?
no

Would you kindly verify if IC50 of Nc1nc(OC2CCCC2)nc2c1ncn2[C@@H]1O[C@H](CO)[C@@H](O)[C@H]1O is strictly less than 30 µM?
yes

Threshold test, IC50 < 30 µM: NC(=O)c1cnc(NCCO)c2cc(Br)sc12
no

* * *

# assay method text: Inhibition of wild type Streptococcus pneumoniae LigA
observable: IC50 (µM)
Write the answer as a number in µM, unit excluded.

Recorded IC50, per entry:
# smiles representation, IC50 / µM
rows = [
    ("NC(=O)c1cnc(N)c2cc(Br)sc12", 21),
    ("NC(=O)c1cnc(N)c2c(-c3ccn[nH]3)csc12", 100),
    ("NC(=O)c1cnc(N)c2cc(-c3ccn[nH]3)sc12", 29),
]

Quick check: IC50 of Cc1cc2c(N)ncc(C(N)=O)c2s1 ?
200

Values were extracted from ChEMBL document CHEMBL3098126.
